Reported Ki is given for each of the following molecules.
Biological target: Adenosine receptor A3 (Homo sapiens, UniProt P0DMS8)
Sequence (P0DMS8 whole entry): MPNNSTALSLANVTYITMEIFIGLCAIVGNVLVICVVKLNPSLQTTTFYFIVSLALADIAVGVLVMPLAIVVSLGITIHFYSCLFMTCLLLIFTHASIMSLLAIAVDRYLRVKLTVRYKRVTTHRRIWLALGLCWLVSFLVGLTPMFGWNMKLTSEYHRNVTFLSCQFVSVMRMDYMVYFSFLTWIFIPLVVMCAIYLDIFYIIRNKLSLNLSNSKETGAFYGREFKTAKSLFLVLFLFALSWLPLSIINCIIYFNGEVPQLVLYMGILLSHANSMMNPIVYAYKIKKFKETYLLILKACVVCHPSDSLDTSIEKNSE
assay_readout: Ki

INSERT INTO measurements (smiles_notation, result) VALUES
  ('O=C(Nc1ccccc1)C(=O)c1cn(Cc2ccccc2)c2ccccc12', '> 1000 nM'),
  ('O=C(C(=O)c1cn(Cc2ccccc2)c2ccccc12)c1ccco1', '> 1000 nM'),
  ('O=C(Nc1ccccc1)c1cn(Cc2ccccc2)c2ccccc12', '> 1000 nM'),
  ('O=C(C(=O)c1cn(Cc2ccccc2)c2ccccc12)c1ccccc1', '> 1000 nM'),
  ('O=C(C(=O)c1cn(Cc2ccccc2)c2ccccc12)c1cccs1', '> 1000 nM'),
  ('O=C(NCc1ccccc1)c1cn(Cc2ccccc2)c2ccccc12', '> 1000 nM');
